# target.desc: UniProtKB P20594
# test.details: Counter-screen, Nppc-stimulated HEK-hNpr2-cGMP-sensor cells
# Type: cell-based
# experimental.parameters: read-out: Imax, HEK-hNpr2-cGMP-sensor cells; 1 nM Nppc-stimulated; −100% = no agonist
measured.quantity: Imax (%)
Numeric only. Scale: %

molecule	Imax [%]
Cc1cc(CNC(=O)c2ccc3c(c2)n(CC2CC2)c(=O)n3C2CCCCC2)on1	-97
Cc1noc(C)c1-c1cc(-c2ccccc2Oc2ccccc2)cn2cncc12	-97
O=C(NCc1cccnc1)c1cnc2[nH]nc(-c3ccccc3)c2n1	-122
N#Cc1ccccc1CN1CCCC(C(=O)NCc2ccccc2)CCNC(=O)CC1 (centres unmarked)	-108

Attention now shifts to the item below.
Given the entry COc1ccc(C2(C(=O)N3CCC4(CC3)c3nccn3-c3ccccc3CN4C)CC2)cc1 , report its measured Imax.
-96

----------
# target.desc: hNpr2 (Homo sapiens)
# Sequence (P20594 23-1047): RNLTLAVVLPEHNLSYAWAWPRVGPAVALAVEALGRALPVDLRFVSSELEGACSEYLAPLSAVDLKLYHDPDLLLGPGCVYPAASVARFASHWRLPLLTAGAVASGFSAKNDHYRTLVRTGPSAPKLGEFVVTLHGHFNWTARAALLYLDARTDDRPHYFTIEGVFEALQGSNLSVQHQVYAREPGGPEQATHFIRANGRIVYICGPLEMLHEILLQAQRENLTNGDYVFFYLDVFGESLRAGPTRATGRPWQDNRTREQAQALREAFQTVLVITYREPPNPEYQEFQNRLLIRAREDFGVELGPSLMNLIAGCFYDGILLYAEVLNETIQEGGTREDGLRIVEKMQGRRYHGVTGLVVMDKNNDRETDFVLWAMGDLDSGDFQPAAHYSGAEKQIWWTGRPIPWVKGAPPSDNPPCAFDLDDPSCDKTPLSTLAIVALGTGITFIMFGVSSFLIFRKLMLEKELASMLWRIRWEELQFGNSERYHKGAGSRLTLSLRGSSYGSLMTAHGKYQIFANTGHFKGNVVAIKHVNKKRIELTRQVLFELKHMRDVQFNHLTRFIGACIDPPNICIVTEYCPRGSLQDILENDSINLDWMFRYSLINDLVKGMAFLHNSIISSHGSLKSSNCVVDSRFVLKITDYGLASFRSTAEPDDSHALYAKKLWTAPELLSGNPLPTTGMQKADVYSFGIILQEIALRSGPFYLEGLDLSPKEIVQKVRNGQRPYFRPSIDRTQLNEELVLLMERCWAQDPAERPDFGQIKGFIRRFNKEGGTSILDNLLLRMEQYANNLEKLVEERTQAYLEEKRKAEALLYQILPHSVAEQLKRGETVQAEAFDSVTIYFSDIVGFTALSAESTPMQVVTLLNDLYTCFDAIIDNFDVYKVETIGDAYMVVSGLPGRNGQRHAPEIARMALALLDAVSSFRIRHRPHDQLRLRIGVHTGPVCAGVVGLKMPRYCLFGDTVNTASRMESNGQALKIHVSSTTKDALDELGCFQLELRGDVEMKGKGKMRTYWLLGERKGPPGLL
# test.details: Counter-screen, Nppc-stimulated HEK-hNpr2-cGMP-sensor cells
# Assay type: cell-based
# experimental.parameters: read-out: Imax, HEK-hNpr2-cGMP-sensor cells; 1 nM Nppc-stimulated; −100% = no agonist
# key: entry, value: Imax
Report only the number, with the unit % understood.

Reference set (3 entries):
compound	target.desc	Imax / %
CN(Cc1ccccc1)C(=O)c1cn2ccnc(-c3ccccc3)c2n1	hNpr2 (Homo sapiens)	-91
O=C(Cc1ccc(Cl)cc1)N1Cc2ccccc2CC2(CCCN2CC2CCNC2)C1 (stereo not shown)	hNpr2 (Homo sapiens)	-88
Cl.O=C1Nc2ccccc2CN(CC2CCCCC2)C12CCNCC2 [JS-1, hydrochloride]	hNpr2 (Homo sapiens)	-106

Let us examine a further case.
What measured Imax goes with CCC(CC)c1cc([C@H]2CN3CC[C@H]2C[C@@H]3CNS(=O)(=O)c2cccs2)nc(-c2ccncc2)n1 ?
-126
